# TARGET_UNDER_TEST: T1, mouse MAdCAM expressed on cells (mouse, UniProt Q61826 22-405)
# T1 construct: whole, on cells
# T1 sequence (looked up): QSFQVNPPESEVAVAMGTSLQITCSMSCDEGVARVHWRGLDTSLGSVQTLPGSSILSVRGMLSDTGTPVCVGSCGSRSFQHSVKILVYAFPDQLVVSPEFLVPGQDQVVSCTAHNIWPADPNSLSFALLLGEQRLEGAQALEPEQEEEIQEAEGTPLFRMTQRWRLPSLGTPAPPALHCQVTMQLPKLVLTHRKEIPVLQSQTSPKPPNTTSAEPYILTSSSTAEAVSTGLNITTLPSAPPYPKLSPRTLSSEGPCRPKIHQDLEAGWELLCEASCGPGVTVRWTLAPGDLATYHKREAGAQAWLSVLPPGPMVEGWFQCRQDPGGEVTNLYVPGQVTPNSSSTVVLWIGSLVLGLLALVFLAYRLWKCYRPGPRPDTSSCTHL
# ASSAY_PROCEDURE: cell binding
OBSERVABLE: binding result

Entry under review: MAdCAM antibody Clone ID 56 of Table 7 (IgG) (antibody, V domains shown, IgG format) VH: EVQLVESGGGLVKPGGSLRLSCAASGFTFSSYWMSWVRQAPGKGLEWVSAIGTGGGTYYAAPVKGRFTISRDDSKNTLYLQMNSLKTEDTAVYYCAREWLVPYYGMDVWGQGTTVTVSS VL: DIQMTQSPSSLSASVGDRVTITCRASQSISRWLAWYQQKPGKAPKLLIYGASNLQSGVPSRFSGSGSGTDFTLTISSLQPEDFATYYCQQSYSTPWTFGQGTKVEIK . Reported binding result?
no binding

How about this binder: MAdCAM antibody Clone ID 25 of Table 7 (IgG) (antibody, V domains shown, IgG format) VH: EVQLLESGGGLVQPGGSLRLSCAASGFTFSNAWMSWVRQAPGKGLEWVSTIVGNGGATYYADSVKGRFTISRDNSKNTLYLQMNSLRAEDTAVYYCARDNPLRWQGMDVWGQGTLVTVSS VL: DIQMTQSPSSLSASVGDRVTITCRASQDISNYLNWYQQKPGKAPKLLIYAASSLQSGVPSRFSGSGSGTDFTLTISSLQPEDFATYYCQQSYSIPPTFGPGTKVDIK
no binding

How about this binder: MAdCAM antibody Clone ID 23 of Table 7 (IgG) (antibody, V domains shown, IgG format) VH: EVQLLESGGGLVQPGGSLRLSCAASGFTFDDYAMHWVRQAPGKGLEWVSYIDTSSSHLYYADSVKGRFTISRDNSKNTLYLQMNSLRAEDTAVYYCARDEAAAGYYGMDVWGQGTTVTVSS VL: DIQMTQSPSSLSASVGDRVTITCQAGQDISNYLNWYQQKPGKAPKLLIYDASNLETGVPSRFSGSGSGTDFTLTISSLQPEDFATYYCQQTYSTPITFGQGTKLEIK
no binding
